The values you see were collected from PubChem BioAssay (NCI).

Task for the reader: assign each of the following compounds its reported growth inhibition.
# experiment summary: NCI Yeast Anticancer Drug Screen. Data for the sgs1 mgt1 strain (AID 161);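 further: 0% = growth of cultures given vehicle only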
# condition info: S. cerevisiae sgs1 mgt1 strain, at 50.0 µM (retest, dose inferred, filed as 5.0), hits give high values
About 79,000 compounds went through this panel and 15% of them were active in at least one assay; those are over-represented in the sample as a whole.
Numbers only, in %.

Reference set (5 entries):
Lookup: What measured growth inhibition goes with "O=C(/C=C/c1ccccc1)c1ccccc1O" ?
Found: 55

Lookup: Would you mind telling me what growth inhibition value was observed for "NC(=Nc1nc(-c2ccccn2)cc2ccccc12)c1ccccn1" ?
Found: 72

Lookup: Fill in: growth inhibition of "O=C(c1ccccc1)c1ccc(O)c2ncccc12" is ___
Found: 99

Lookup: Recorded growth inhibition of "Cc1cc(C(=C2C=CC(=Nc3ccccc3)C=C2)c2ccc(Nc3ccccc3)cc2)ccc1N" , please.
Found: 79

Lookup: Record request: growth inhibition value, item CCC(CC)(c1ccccc1)C(O)c1ccccc1 (stereo not drawn)
Found: 98

Your task in this section: give growth inhibition for each listed record.
1. O=C(O)/C=C\C(=O)NNc1ccccc1
2. COC(=O)c1ccc(Cl)c(NN)c1
3. Oc1ccc(Br)cc1Sc1cc(Br)ccc1O
4. CN=C(N)N/N=C(\C)c1ccc2c(c1)Cc1ccccc1-2
5. CN(C)c1ccc(C(=C2C=CC(=[N+](C)C)C=C2)c2ccc(N(C)C)cc2)cc1
6. CCCN(CCC)C(=O)c1ccc(C)cc1
7. S=C=Nc1ccc(N2CCOCC2)cc1

Found:
1: 98; 2: 98; 3: 100; 4: 96; 5: 95; 6: 5; 7: 99

Lookup: // growth inhibition lookup, key: "COc1ccc(/C(C#N)=C/c2cccc(N)c2)cc1"
Found: 27
